IC50 values by entry
- System: M14
- MEASUREMENT_NOTES: Cytotoxicity against human M14 cells assessed as cell viability after 72 hrs by MTT assay
- Type: functional, cell-based
- STUDY_CONDITIONS: M14, 72 h
The answer is to be given in µM; state only the numeric part.

Below, each entry is followed by its recorded IC50 result.
{"SMILES_CODE": "COc1cc(OC)cc(/C(=C\\c2cn(C(C)=O)c3ccc(OCc4ccccc4)cc23)C(=O)O)c1", "OBSERVATION_TYPE": "IC50", "UNIT_LABEL": "µM", "RECORDED_RESULT": 94}
{"SMILES_CODE": "COc1ccc(Cn2cc(/C=C(/C(=O)O)c3ccccc3)c3cc(OCc4ccccc4)ccc32)cc1", "OBSERVATION_TYPE": "IC50", "UNIT_LABEL": "µM", "RECORDED_RESULT": 64.5}

# lookup: IC50 of O=C(O)/C(=C/c1c[nH]c2ccc(OCc3ccccc3)cc12)c1ccccc1
95.2

* * *

Entries annotated with measured IC50
- Tested on: LNCaP
- MEASUREMENT_NOTES: Cytotoxicity against human LNCAP cells assessed as cell viability after 72 hrs by MTT assay
- Format: functional, cell-based

The examples below pair each entry with its known result.
{"SMILES_CODE": "COc1cc(OC)cc(/C(=C\\c2cn(C(C)=O)c3ccc(OCc4ccccc4)cc23)C(=O)O)c1", "MEASUREMENT_TARGET": "LNCaP", "RECORDED_RESULT": "26.1 µM"}
{"SMILES_CODE": "CC(=O)n1cc(/C=C(/C(=O)O)c2ccc3c(c2)OCO3)c2cc(OCc3ccccc3)ccc21", "MEASUREMENT_TARGET": "LNCaP", "RECORDED_RESULT": "99.1 µM"}
{"SMILES_CODE": "CC(=O)n1cc(/C=C(/C(=O)O)c2ccccc2)c2cc(OCc3ccccc3)ccc21", "MEASUREMENT_TARGET": "LNCaP", "RECORDED_RESULT": "> 100 µM"}

Recorded IC50 of CC(=O)n1cc(/C=C(/C(=O)O)c2ccc(OCc3ccccc3)cc2)c2cc(OCc3ccccc3)ccc21 , please.
77.7 µM

Quick one: IC50 of COc1ccccc1/C(=C\c1cn(C(C)=O)c2ccc(OCc3ccccc3)cc12)C(=O)O ?
48.5 µM

Report IC50 for COc1cccc(/C(=C\c2cn(C(C)=O)c3ccc(OCc4ccccc4)cc23)C(=O)O)c1 please.
65.1 µM

* * *

- Test system: LNCaP
- MEASUREMENT_NOTES: Cytotoxicity against human LNCAP cells assessed as cell viability after 72 hrs by MTT assay
- Assay type: functional, cell-based
OBSERVATION_TYPE: IC50

{"SMILES_CODE": "COc1ccc(OC)c(/C(=C\\c2cn(C(C)=O)c3ccc(OCc4ccccc4)cc23)C(=O)O)c1", "IC50": "44.1 µM"}
{"SMILES_CODE": "COc1ccc(Cn2cc(/C=C(/C(=O)O)c3ccccc3)c3cc(OCc4ccccc4)ccc32)cc1", "IC50": "38.2 µM"}

Give recorded IC50 with LNCaP for the following compound: CC(=O)n1cc(/C=C(/C(=O)O)c2ccc(Cl)cc2)c2cc(OCc3ccccc3)ccc21
> 100 µM

Kindly state the measured IC50 obtained for COc1ccc(/C(=C\c2cn(C(C)=O)c3ccc(OCc4ccccc4)cc23)C(=O)O)cc1OC with LNCaP.
> 100 µM

Report IC50 for COc1ccc(/C(=C\c2cn(C(C)=O)c3ccc(OCc4ccccc4)cc23)C(=O)O)cc1 tested on LNCaP.
85 µM

Provide value of IC50 for this record tested with LNCaP: COc1cc(/C(=C\c2cn(C(C)=O)c3ccc(OCc4ccccc4)cc23)C(=O)O)cc(OC)c1OC
59.6 µM
